The measurements presented in this section are drawn from paper PMC7265341.

As shown below, each of these compounds has a reported Inhibition at 10µM (%) value.
molecular target: CDK13/Cyclin K (Homo sapiens); assay: NanoBRET live-cell target engagement, CDK13-NanoLuc/Cyclin K in HEK-293; assay type: binding; settings: CDK13/K; average
Sequence (O75909 whole entry): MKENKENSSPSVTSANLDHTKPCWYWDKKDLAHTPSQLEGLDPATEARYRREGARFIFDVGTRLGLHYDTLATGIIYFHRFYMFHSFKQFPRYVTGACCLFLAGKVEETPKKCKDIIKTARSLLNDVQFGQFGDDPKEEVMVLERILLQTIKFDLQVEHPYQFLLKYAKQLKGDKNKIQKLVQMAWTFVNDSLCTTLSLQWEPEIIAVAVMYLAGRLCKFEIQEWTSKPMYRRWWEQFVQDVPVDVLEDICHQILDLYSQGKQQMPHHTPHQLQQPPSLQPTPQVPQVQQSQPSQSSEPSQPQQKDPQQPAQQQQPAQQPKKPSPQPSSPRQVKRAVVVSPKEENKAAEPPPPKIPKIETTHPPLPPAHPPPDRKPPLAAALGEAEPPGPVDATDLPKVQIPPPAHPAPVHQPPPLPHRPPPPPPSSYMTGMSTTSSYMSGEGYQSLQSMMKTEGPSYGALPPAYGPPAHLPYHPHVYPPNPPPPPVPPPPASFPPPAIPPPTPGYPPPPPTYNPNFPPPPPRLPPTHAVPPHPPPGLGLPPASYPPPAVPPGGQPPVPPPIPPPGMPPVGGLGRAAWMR
Sequence (Q14004 other isoform, or with tags, fused parts or gaps): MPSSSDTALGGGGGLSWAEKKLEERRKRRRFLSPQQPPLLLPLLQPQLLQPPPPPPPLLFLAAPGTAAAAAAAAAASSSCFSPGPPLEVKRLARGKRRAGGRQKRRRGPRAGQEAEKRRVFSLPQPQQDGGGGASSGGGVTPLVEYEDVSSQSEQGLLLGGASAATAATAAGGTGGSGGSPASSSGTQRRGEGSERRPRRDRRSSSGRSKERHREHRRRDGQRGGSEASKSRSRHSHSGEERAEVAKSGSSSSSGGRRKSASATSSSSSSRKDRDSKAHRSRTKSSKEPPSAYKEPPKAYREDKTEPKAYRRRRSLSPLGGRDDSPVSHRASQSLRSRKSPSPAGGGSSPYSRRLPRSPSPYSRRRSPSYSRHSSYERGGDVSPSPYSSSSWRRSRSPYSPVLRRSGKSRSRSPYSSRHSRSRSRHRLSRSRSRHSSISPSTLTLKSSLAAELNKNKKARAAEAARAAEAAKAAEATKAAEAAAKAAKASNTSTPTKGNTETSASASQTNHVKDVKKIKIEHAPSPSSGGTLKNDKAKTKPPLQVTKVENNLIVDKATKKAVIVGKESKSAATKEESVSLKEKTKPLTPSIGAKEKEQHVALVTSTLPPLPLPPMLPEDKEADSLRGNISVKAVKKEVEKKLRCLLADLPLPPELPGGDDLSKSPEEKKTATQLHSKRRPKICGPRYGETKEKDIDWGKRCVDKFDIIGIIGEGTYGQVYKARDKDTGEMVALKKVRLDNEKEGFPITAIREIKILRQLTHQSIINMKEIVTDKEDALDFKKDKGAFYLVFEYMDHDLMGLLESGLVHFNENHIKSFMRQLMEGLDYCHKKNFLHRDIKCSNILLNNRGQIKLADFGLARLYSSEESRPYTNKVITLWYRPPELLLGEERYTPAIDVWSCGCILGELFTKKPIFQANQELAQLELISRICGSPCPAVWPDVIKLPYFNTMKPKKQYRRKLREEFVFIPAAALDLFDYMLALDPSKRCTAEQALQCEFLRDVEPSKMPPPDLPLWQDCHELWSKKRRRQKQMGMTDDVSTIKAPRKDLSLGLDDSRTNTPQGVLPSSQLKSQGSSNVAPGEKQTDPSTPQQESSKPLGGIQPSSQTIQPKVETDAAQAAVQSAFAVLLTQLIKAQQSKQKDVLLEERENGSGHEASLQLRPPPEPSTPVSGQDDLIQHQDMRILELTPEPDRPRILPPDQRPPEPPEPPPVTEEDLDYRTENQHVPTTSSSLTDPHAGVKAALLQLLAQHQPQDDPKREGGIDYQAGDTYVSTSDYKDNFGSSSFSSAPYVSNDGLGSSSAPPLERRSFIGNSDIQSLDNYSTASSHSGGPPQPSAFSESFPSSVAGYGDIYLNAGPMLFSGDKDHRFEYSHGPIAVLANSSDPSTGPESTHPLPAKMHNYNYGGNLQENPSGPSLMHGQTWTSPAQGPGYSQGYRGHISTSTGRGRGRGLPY
Numeric only. Scale: %

Guide cases for Inhibition at 10µM (%), answers given:
{"compound": "CNc1nc(C)c(-c2nc(Nc3cccc(S(N)(=O)=O)c3)ncc2F)s1", "Inhibition at 10µM (%)": 37.1}
{"compound": "CN1CCC(c2c(O)cc(O)c3c(=O)cc(-c4ccccc4Cl)oc23)C1CO (stereo not drawn)", "Inhibition at 10µM (%)": 11.2}
{"compound": "CC(C)c1c2cc(-c3ccnc(N[C@H]4CC[C@H](NC5CCOCC5)CC4)n3)ccc2nn1C", "Inhibition at 10µM (%)": 26.3}
{"compound": "CCn1cnc2c(Nc3cccc(Cl)c3)nc(N[C@@H]3CCCC[C@@H]3N)nc21 [CGP74514A]", "Inhibition at 10µM (%)": 35.2}
{"compound": "CS(=O)(=O)N1CCC(NC(=O)c2[nH]ncc2NC(=O)c2c(Cl)cccc2Cl)CC1", "Inhibition at 10µM (%)": 20.5}

**Q:** Fill in the blank: the reported Inhibition at 10µM (%) of CC(C)c1cnn2c(NCc3ccccc3-n3cccn3)nc(OC3CCCNC3)nc12 (stereo not drawn) is ____.
**A:** 24.9
